Provenance of the data: patent US9550796B2

- Test system: MV-4-11
Readout Label: GI50 (µM)

Cc1cc(N2C(=O)c3cc(-c4ccc(N(C)C)nc4)n(C)c3C2c2ccc(Cl)cc2)cn(C)c1=O (stereo not shown) [Example 50] : 0.0208
Cc1cc(N2C(=O)c3c(C4CC4)cn(C4CN(C)C4)c3C2c2ccc(Cl)cc2)cn2c(C)nnc12 (stereo not shown) [Example 16] : 0.00381

(1) CCOC(=O)n1c(-c2cccnc2OC)c(C)c2c1C(c1ccc(Cl)cc1)N(c1cc(C)c3nnc(C)n3c1)C2=O (stereo not shown) [Example 124]
(2) Cc1cc(N2C(=O)c3c(C(=O)NCCN(C)C)cn(C)c3C2c2ccc(Cl)cc2)cc2c1nnn2C (stereo not shown) [Example 112]
Query: Lab notebook, comparison: 1 versus 2 , higher GI50 goes to which? Reply with the label of the item you choose.
Reply: 2
